IC50 values, listed per item
subject-of-test: nsp14 methyltransferase from SARS-CoV-2 (Severe acute respiratory syndrome coronavirus 2)
procedure-text: Nsp14 MTase activity inhibition in vitro (EchoMS assay)
Type: biochemical
condition-parameters: recombinant nsp14 protein expressed in E. coli; dose-response curve
observation-type: IC50

Cc1noc(-c2ccccc2)c1CSC[C@H]1O[C@@H](n2cc(C#Cc3cncnc3)c3c(N)ncnc32)[C@H](O)[C@@H]1O [Compound 172b] | 0.01 to 0.03 µM
CC(C)c1onc(-c2ccccc2)c1CSC[C@H]1O[C@@H](n2ccc3c(N)ncnc32)[C@H](O)[C@@H]1O [Compound 107c] | 0.5 to 2 µM
Cc1noc(-c2ccccc2)c1CSC[C@H]1O[C@@H](n2cc(SC34CC5CC(CC(C5)C3)C4)c3c(N)ncnc32)[C@H](O)[C@@H]1O | 0.1 to 0.5 µM
Cc1noc(-c2ccc(N)cc2)c1CSC[C@H]1O[C@@H](n2cc(C#Cc3cncnc3)c3c(N)ncnc32)[C@H](O)[C@@H]1O [Compound 241c] | 0.01 to 0.03 µM
Cc1ncnc(-c2ccccc2)c1CSC[C@H]1O[C@@H](n2cc(I)c3c(N)ncnc32)[C@H](O)[C@@H]1O | 0.01 to 0.03 µM
Cc1noc(-c2ccccc2)c1CSC[C@H]1O[C@@H](n2cc(SCc3ccccc3)c3c(N)ncnc32)[C@H](O)[C@@H]1O [Compound 190b] | 0.1 to 0.5 µM

###

subject-of-test: nsp14 methyltransferase from SARS-CoV-2 (Severe acute respiratory syndrome coronavirus 2, UniProt P0DTD1)
procedure-text: Nsp14 MTase activity inhibition in vitro (EchoMS assay)
Format: biochemical
condition-parameters: recombinant nsp14 protein expressed in E. coli; dose-response curve
Recorded IC50, one value per entry.
observation-type: IC50

COc1ccc(-c2nc(C)c(CSC[C@H]3O[C@@H](n4ccc5c(N)ncnc54)[C@H](O)[C@@H]3O)c(-c3ccccc3)n2)cc1OC [Compound 119c] | 30 to 100 nM
Cc1onc(-c2ccccc2)c1CSC[C@H]1O[C@@H](n2ccc3c(N)ncnc32)[C@H](O)[C@@H]1O [Compound 48c] | 100 to 500 nM
Cc1ncn(-c2ccccc2)c1CSC[C@H]1O[C@@H](n2ccc3c(N)ncnc32)[C@H](O)[C@@H]1O [Compound 61c] | 100 to 500 nM
C=Cc1cn([C@@H]2O[C@H](CSCc3c(C)noc3-c3ccccc3)[C@@H](O)[C@H]2O)c2ncnc(N)c12 [Compound 139b] | 500 to 2000 nM
Cc1noc(-c2ccccc2)c1CSC[C@H]1O[C@@H](n2cc(C#Cc3cnc4ccccc4c3)c3c(N)ncnc32)[C@H](O)[C@@H]1O [Compound 176b] | 100 to 500 nM
Cc1noc(-c2ccccc2)c1CSC[C@H]1O[C@@H](n2cc(C#Cc3ccccc3)c3c(N)ncnc32)[C@H](O)[C@@H]1O | 30 to 100 nM

###

subject-of-test: nsp14 methyltransferase from SARS-CoV-2 (Severe acute respiratory syndrome coronavirus 2)
procedure-text: Nsp14 MTase activity inhibition in vitro (EchoMS assay)
Assay type: biochemical
condition-parameters: recombinant nsp14 protein expressed in E. coli; dose-response curve
observation-type: IC50

Cc1noc(-c2ccccc2)c1CSC[C@H]1O[C@@H](n2cc(C#N)c3c(N)ncnc32)[C@H](O)[C@@H]1O [Compound 138b] | 30 to 100 nM
CCc1onc(-c2ccccc2)c1CSC[C@H]1O[C@@H](n2ccc3c(N)ncnc32)[C@H](O)[C@@H]1O [Compound 106c] | 100 to 500 nM
Cn1nnc(-c2ccccc2)c1CSC[C@H]1O[C@@H](n2ccc3c(N)ncnc32)[C@H](O)[C@@H]1O [Compound 55c] | 30 to 100 nM
COc1ccc(/C=C/c2cn([C@@H]3O[C@H](CSCc4c(C)noc4-c4ccccc4)[C@@H](O)[C@H]3O)c3ncnc(N)c23)cc1 [Compound 182b] | 30 to 100 nM
Cc1nc(N)c2ccn([C@@H]3O[C@H](CSCc4c(C)noc4-c4ccccc4)[C@@H](O)[C@H]3O)c2n1 | 30 to 100 nM
Cc1noc(-c2ccccc2)c1CSC[C@H]1O[C@@H](n2nc(-c3ccc(CC#N)cc3)c3c(N)ncnc32)[C@H](O)[C@@H]1O [Compound 222b] | 10 to 30 nM
Cn1ncc(-c2ccccc2)c1CSC[C@H]1O[C@@H](n2ccc3c(N)ncnc32)[C@H](O)[C@@H]1O [Compound 60c] | 30 to 100 nM
Nc1ncnc2c1ccn2[C@@H]1O[C@H](CSCc2c(-c3ccccc3)noc2C2CC2)[C@@H](O)[C@H]1O [Compound 108c] | 100 to 500 nM
Cc1noc(-c2ccccc2)c1CSC[C@H]1O[C@@H](n2cc(C#Cc3cccnc3)c3c(N)ncnc32)[C@H](O)[C@@H]1O [Compound 170b] | 10 to 30 nM
Cn1c(-c2ccccc2)nc(-c2ccccc2)c1CSC[C@H]1O[C@@H](n2ccc3c(N)ncnc32)[C@H](O)[C@@H]1O [Compound 120c] | 30 to 100 nM
Cc1noc(-c2ccccc2)c1CSC[C@H]1O[C@@H](n2nc(CCCC#N)c3c(N)ncnc32)[C@H](O)[C@@H]1O [Compound 223b] | 30 to 100 nM
Cc1noc(-c2ccccc2)c1CSC[C@H]1O[C@@H](n2cc(-c3ccc(-c4cccnc4)cc3)c3c(N)ncnc32)[C@H](O)[C@@H]1O | 30 to 100 nM
CCc1cn([C@@H]2O[C@H](CSCc3c(C)noc3-c3ccccc3)[C@@H](O)[C@H]2O)c2ncnc(N)c12 | 30 to 100 nM
Cc1noc(-c2ccccc2)c1CSC[C@H]1O[C@@H](n2cc(C#Cc3cnc(N)nc3)c3c(N)ncnc32)[C@H](O)[C@@H]1O [Compound 174b] | 30 to 100 nM
Cc1noc(-c2cscn2)c1CSC[C@H]1O[C@@H](n2ccc3c(N)ncnc32)[C@H](O)[C@@H]1O [Compound 101c] | 30 to 100 nM
Cn1cnc(-c2ccccc2)c1CSC[C@H]1O[C@@H](n2ccc3c(N)ncnc32)[C@H](O)[C@@H]1O [Compound 49c] | 100 to 500 nM
Cc1noc(-c2ccccc2)c1CSC[C@H]1O[C@@H](n2cc(Cc3ccc4ccccc4c3)c3c(N)ncnc32)[C@H](O)[C@@H]1O [Compound 186b] | 500 to 2000 nM
Cc1ccc(-c2onc(C)c2CSC[C@H]2O[C@@H](n3cc(-c4ccc(C#N)cc4)c4c(N)ncnc43)[C@H](O)[C@@H]2O)cc1C [Compound 235b] | 30 to 100 nM
Cc1ccc(-c2onc(C)c2CSC[C@H]2O[C@@H](n3ccc4c(N)ncnc43)[C@H](O)[C@@H]2O)cc1C [Compound 95c] | 10 to 30 nM
Cc1noc(-c2ccc3c(c2)OCO3)c1CSC[C@H]1O[C@@H](n2cc(-c3ccc(C#N)cc3)c3c(N)ncnc32)[C@H](O)[C@@H]1O [Compound 236b] | 10 to 30 nM
Cn1cnc(-c2ccccc2)c1CSC[C@H]1O[C@@H](n2cc(I)c3c(N)ncnc32)[C@H](O)[C@@H]1O | 10 to 30 nM
COc1ccc(-c2onc(C)c2CSC[C@H]2O[C@@H](n3ccc4c(N)ncnc43)[C@H](O)[C@@H]2O)cc1 [Compound 94c] | 10 to 30 nM
Cc1noc(-c2ccccc2)c1CSC[C@H]1O[C@@H](n2cc(CCc3cncnc3)c3c(N)ncnc32)[C@H](O)[C@@H]1O | 30 to 100 nM
Cc1nccc(-c2ccccc2)c1CSC[C@H]1O[C@@H](n2ccc3c(N)ncnc32)[C@H](O)[C@@H]1O [Compound 50c] | 100 to 500 nM
Cc1noc(-c2ccccc2)c1CSC[C@H]1O[C@@H](n2ccc3c(N)nc(F)nc32)[C@H](O)[C@@H]1O | 30 to 100 nM
Nc1ncnc2c1ccn2[C@@H]1O[C@H](CSCc2csnc2-c2ccccc2)[C@@H](O)[C@H]1O [Compound 105c] | 500 to 2000 nM

Value source: patent EP4553080A1
